experiment.description: Caco-2 permeability assay
Type: in vitro ADME
experimental.parameters: human, apical to basolateral, pH 7.4
I'd be grateful if you could share measured Papp A→B at 80 min for these entries.
The answer is to be given in ×10⁻⁶ cm/s; state only the numeric part.

Output measured Papp A→B at 80 min for this item: `CNC(=O)c1cccc(Cn2nc(C)c(NC(=O)c3ccc(COc4ccc(C(F)(F)F)cc4)cc3)c2C)n1` 24.5

Output measured Papp A→B at 80 min for this item: `CNC(=O)c1cc(Cn2nc(C)c(NC(=O)c3ccc(COc4ccc(C(F)(F)F)cc4)cc3)c2C)ccn1` 5.02

Output measured Papp A→B at 80 min for this item: `CNC(=O)c1cccc(Cn2nc(C)c(NC(=O)c3ccc(COc4ccc(C(F)(F)F)cc4C)cc3)c2C)c1` 3.72

Output measured Papp A→B at 80 min for this item: `CNC(=O)c1cccc(Cn2nc(C)c(NC(=O)c3ccc(COc4ccc(C(F)(F)F)cc4)cc3)c2C)c1` 8.26

Output measured Papp A→B at 80 min for this item: `CNC(=O)c1cc(Cn2nc(C)c(NC(=O)c3ccc(COc4ccc(C(F)(F)F)cc4C)cc3)c2C)ccn1` 8.34

Output measured Papp A→B at 80 min for this item: `CNC(=O)c1cccc(Cn2nc(C)c(NC(=O)c3ccc(COc4ccc(C(F)(F)F)cc4C)cc3)c2C)n1` 3.58
